target: UniProtKB P24941; assay: Fluorescence polarization displacement assay (inhibitory effectiveness toward CDK-2); format: binding; details: inhibitory effectiveness toward CDK-2; read-out: IC50
quantity kind: IC50

In the examples that follow, each entry is paired with its recorded IC50.
{"columns": ["compound", "target desc", "quantity kind", "measured result"],
 "data": [
  ["COC(=O)[C@H](Cc1ccc(O)cc1)NC(=O)c1cc(C(=O)O)c2cc(/C=C/c3ccc(Cl)cc3)ccc2n1", "UniProtKB P24941", "IC50", "< 1 µM"],
  ["COC[C@H](Cc1ccc(O)cc1)NC(=O)c1cc(C(=O)O)c2cc(-c3cccc(CN4CC[C@@H](O)C4)c3)ccc2n1", "UniProtKB P24941", "IC50", "> 40 µM"],
  ["O=C(N[C@@H](Cc1ccc(O)cc1)c1nnn[nH]1)c1cc(C(=O)O)c2cc(-c3cccc(C(F)(F)F)c3)ccc2n1", "UniProtKB P24941", "IC50", "> 40 µM"],
  ["COC[C@H](Cc1ccc(O)cc1)NCc1cc(C(=O)OCCO)c2cc(-c3cccc(C(F)(F)F)c3)ccc2n1", "UniProtKB P24941", "IC50", "> 40 µM"],
  ["COC(=O)[C@H](Cc1ccc(O)cc1)NC(=O)c1cc(C(=O)O)c2cc(-c3cc(Cl)cc(Cl)c3)ccc2n1", "UniProtKB P24941", "IC50", "< 1 µM"]
]}

Quick note, IC50 for COC[C@H](Cc1ccc(O)cc1)NC(=O)c1cc(C(=O)O)c2cc(-c3cccc(C(F)(F)F)c3)ccc2n1 landed at < 1 µM

====

molecular target: CDK-2 (Homo sapiens); assay: Fluorescence polarization displacement assay (inhibitory effectiveness toward CDK-2); assay type: binding; conditions: inhibitory effectiveness toward CDK-2; read-out: IC50
pIC50: −log10 of the molar value.
quantity kind: pIC50

In the examples that follow, each entry is paired with its recorded pIC50.
{"columns": ["smiles data", "pIC50"],
 "data": [
  ["Cc1cnc([C@H](Cc2ccc(O)cc2)NCc2cc(C(=O)O)c3cc(-c4cccc(C(F)(F)F)c4)ccc3n2)o1", "> 6.00"],
  ["COC[C@H](Cc1ccc(O)cc1)NC(=O)c1cc(C(=O)O)c2cc(OCc3ccc(C(F)(F)F)cc3)ccc2n1", "> 6.00"]
]}

Quick note, pIC50 for CCCCCCCc1ccc2nc(C(=O)N[C@H](COC)Cc3ccc(O)cc3)cc(C(=O)O)c2c1 landed at > 6.00

Quick note, pIC50 for COC[C@H](Cc1ccc(O)cc1)NCc1cc(C(=O)OC[C@@H](N)C(C)C)c2cc(-c3cccc(C(F)(F)F)c3)ccc2n1 landed at < 4.40

====

target: CDK-2 (Homo sapiens); test: Fluorescence polarization displacement assay (inhibitory effectiveness toward CDK-2); format: binding; details: IC50
Each item that follows carries a reported IC50.

{"columns": ["smiles data", "measured result"],
 "data": [
  ["COC[C@H](Cc1ccc(O)cc1)NC(=O)c1cc(C(=O)O)c2cc(/C=C/c3ccc(Cl)cc3)ccc2n1", "< 1 µM"],
  ["CCCCCCc1ccc2nc(C(=O)N[C@@H](Cc3ccc(O)cc3)C(=O)OC)cc(C(=O)O)c2c1", "< 1 µM"],
  ["COC(=O)[C@H](Cc1ccc(O)cc1)NC(=O)c1cc(C(=O)O)c2cc(CCc3ccc(Cl)cc3)ccc2n1", "< 1 µM"]
]}

Quick note, IC50 for COC(=O)[C@H](Cc1cccc(O)c1)NC(=O)c1cc(C(=O)O)c2cc(-c3cccc(C(F)(F)F)c3)ccc2n1 landed at > 40 µM
